- System: erythrocyte membranes
- measurement.protocol: Hemolysis in RBC suspended in PBS (Kahn method)
- Format: cell-based, human
- conditions.used: pH 7.4
- Method: Hemolysis was tested with fresh citrate anticoagulated blood from healthy volunteers as well as with blood cells which were suspended in phosphate buffered saline (10 mM pH 7.4). Afterwards, 100 μL AMP solution was added to 500 μL blood to finally achieve AMP concentrations of 8, 32, and 128 μg/mL. […] The hemolysis was calculated from the extinction at the wavelengths 562, 578, and 598 nm with a Synergy 2 microplate reader (BioTek, Winooski, VT, USA) according to the method published by Kahn.
Peptide text beside a SMILES is read from it. * marks the point of attachment. Myristoyl = CCCCCCCCCCCCCC(=O)*; Decanoyl = CCCCCCCCCC(=O)*; Octanoyl = CCCCCCCC(=O)*
Free Hemoglobin, RBC in PBS, 32 μg/mL vs 30 mg/dL: at or above is criterion met, below is criterion not met.

Some solved entries appear below for comparison.
[[record]]
compound = "CCCCCCCC(=O)N1CCC[C@H]1C(=O)N[C@@H](Cc1ccccc1)C(=O)N[C@@H](Cc1c[nH]c2ccccc12)C(=O)N[C@@H](CCCNC(=N)N)C(=O)N[C@H](C(=O)N[C@@H](CCCNC(=N)N)C(=O)N[C@H](C(=O)N[C@@H](CCCNC(=N)N)C(=O)N[C@@H](CCCNC(=N)N)C(N)=O)[C@@H](C)CC)[C@@H](C)CC [LF11-322-C8] (Octanoyl-PFWRIRIRR-NH2)"
qualitative_label = "criterion not met"

[[record]]
compound = "CCCCCCCCCCCCCC(=O)N[C@@H](Cc1ccccc1)C(=O)N[C@@H](Cc1c[nH]c2ccccc12)C(=O)N[C@@H](CCCNC(=N)N)C(=O)N[C@@H](CCCNC(=N)N)C(=O)N[C@@H](Cc1ccccc1)C(=O)N[C@@H](Cc1c[nH]c2ccccc12)C(=O)N[C@@H](CCCNC(=N)N)C(=O)N[C@@H](CCCNC(=N)N)C(N)=O [LF11-227-C14] (Myristoyl-FWRRFWRR-NH2)"
qualitative_label = "criterion met"

[[record]]
compound = "CCCCCCCCCC(=O)N1CCC[C@H]1C(=O)N[C@@H](Cc1ccccc1)C(=O)N[C@@H](Cc1c[nH]c2ccccc12)C(=O)N[C@@H](CCCNC(=N)N)C(=O)N[C@H](C(=O)N[C@@H](CCCNC(=N)N)C(=O)N[C@H](C(=O)N[C@@H](CCCNC(=N)N)C(=O)N[C@@H](CCCNC(=N)N)C(N)=O)[C@@H](C)CC)[C@@H](C)CC [LF11-322-C10] (Decanoyl-PFWRIRIRR-NH2)"
qualitative_label = "criterion met"

[[record]]
compound = "CCCCCCCC(=O)N[C@@H](Cc1ccccc1)C(=O)N[C@@H](Cc1c[nH]c2ccccc12)C(=O)N[C@@H](CCCNC(=N)N)C(=O)N[C@@H](CCCNC(=N)N)C(=O)N[C@@H](Cc1ccccc1)C(=O)N[C@@H](Cc1c[nH]c2ccccc12)C(=O)N[C@@H](CCCNC(=N)N)C(=O)N[C@@H](CCCNC(=N)N)C(N)=O [LF11-227-C8] (Octanoyl-FWRRFWRR-NH2)"
qualitative_label = "criterion not met"


Then this compound:
Req: Threshold query (Free Hemoglobin, RBC in PBS, 32 μg/mL >= 30 mg/dL) on CCCCCCCCCCCCCC(=O)N1CCC[C@H]1C(=O)N[C@@H](Cc1ccccc1)C(=O)N[C@@H](Cc1c[nH]c2ccccc12)C(=O)N[C@@H](CCCNC(=N)N)C(=O)N[C@H](C(=O)N[C@@H](CCCNC(=N)N)C(=O)N[C@H](C(=O)N[C@@H](CCCNC(=N)N)C(=O)N[C@@H](CCCNC(=N)N)C(N)=O)[C@@H](C)CC)[C@@H](C)CC [LF11-322-C14] (Myristoyl-PFWRIRIRR-NH2)
Resp: criterion met

Every entry's value here was drawn from paper PMC6862080.
